# Test system: HT-22
# Protocol Text: Neuroprotective activity in mouse HT22 cells assessed as inhibition of glutamate-induced cell oxytosis at 10 uM after 24 hrs by MTT assay relative to control
# Format: functional
Measured Property: Efficacy

In [3]: df
Out[3]:
                                   compound  data_value
0  Cc1c(C)c2c(c(-c3cn(Cc4ccc(O)c(O)c4)nn3)c1O)CCC(C)(C)O2         86%
1  Cc1c(C)c2c(c(Cn3cc(-c4ccc(O)c(O)c4)nn3)c1O)CCC(C)(C)O2         77%
2  Cc1c(C)c2c(c(Cn3nnnc3CCc3ccc(O)c(O)c3)c1O)CCC(C)(C)O2         66%
3  Cc1c(C)c2c(c(Cc3noc(-c4ccc(O)c(O)c4)n3)c1O)CCC(C)(C)O2         95%
4  COc1ccc(CCNC(=O)C2(C)CCc3c(C)c(O)c(C)c(C)c3O2)cc1OC (stereo not drawn)         92%

# input for lookup
So for `Cc1c(C)c2c(c(CCc3ccc(O)c(O)c3)c1O)CCC(C)(C)O2` , the logged Efficacy turned out to be 100%

* * *

# Tested on: HT-22
# Protocol Text: Ratio of EC50 for chroman/catechol analogue V to EC50 for compound in neuroprotective activity in mouse HT22 cells assessed as inhibition of glutamate-induced cell oxytosis after 24 hrs by MTT assay
# Assay type: functional
Recorded Ratio EC50, one value per entry.
// return a plain number; no unit text

Examples from the recorded data:
>>> df
                            compound_smiles  data_value
0  Cc1c(C)c2c(c(Cc3noc(-c4ccc(O)c(O)c4)n3)c1O)CCC(C)(C)O2         0.7
1  Cc1c(C)c2c(c(CCc3ccc(O)c(O)c3)c1O)CCC(C)(C)O2           1
2  Cc1c(C)c2c(c(CC(=O)/C=C/c3ccc(O)c(O)c3)c1O)CCC(C)(C)O2         0.8

Reported HT-22 Ratio EC50 for item `Cc1c(C)c2c(c(-c3cc(-c4ccc(O)c(O)c4)no3)c1O)CCC(C)(C)O2` was 3.8

Reported HT-22 Ratio EC50 for item `Cc1c(C)c2c(c(-c3cn(Cc4ccc(O)c(O)c4)nn3)c1O)CCC(C)(C)O2` was 0.1

Reported HT-22 Ratio EC50 for item `Cc1c(C)c2c(c(Cn3nnnc3CCc3ccc(O)c(O)c3)c1O)CCC(C)(C)O2` was 0.3

Reported HT-22 Ratio EC50 for item `Cc1c(C)c2c(c(-c3cc(-c4ccc(O)c(O)c4)on3)c1O)CCC(C)(C)O2` was 1.6

Reported HT-22 Ratio EC50 for item `Cc1c(C)c2c(c(Cc3noc(/C=C/c4ccc(O)c(O)c4)n3)c1O)CCC(C)(C)O2` was 1.5

Reported HT-22 Ratio EC50 for item `Cc1c(C)c2c(c(Cn3cc(-c4ccc(O)c(O)c4)nn3)c1O)CCC(C)(C)O2` was 1.2

Reported HT-22 Ratio EC50 for item `Cc1c(C)c2c(c(Cc3noc(CCc4ccc(O)c(O)c4)n3)c1O)CCC(C)(C)O2` was 0.4

* * *

# Test system: HT-22
# Protocol Text: Ratio of EC50 for chroman/catechol analogue II to EC50 for compound in neuroprotective activity in mouse HT22 cells assessed as inhibition of glutamate-induced cell oxytosis after 24 hrs by MTT assay
# Format: functional
Measured Property: Ratio EC50

Examples from the recorded data:
                                   molecule  data_value
0  COc1ccc(CCNC(=O)C2(C)CCc3c(C)c(O)c(C)c(C)c3O2)cc1OC (configuration not stated)         0.4
1  COc1ccc(Cc2noc(C3(C)CCc4c(C)c(O)c(C)c(C)c4O3)n2)cc1OC (configuration not stated)         0.9
2  COc1ccc(-c2noc(C3(C)CCc4c(C)c(O)c(C)c(C)c4O3)n2)cc1OC (configuration not stated)         2.6
3  COc1ccc(Cc2nnc(C3(C)CCc4c(C)c(O)c(C)c(C)c4O3)o2)cc1OC (configuration not stated)         0.8
4  COc1ccc(/C=C/C(=O)N2CCN(C(=O)C3(C)CCc4c(C)c(O)c(C)c(C)c4O3)CC2)cc1OC (configuration not stated)           1
5  COc1ccc(-c2nnc(C3(C)CCc4c(C)c(O)c(C)c(C)c4O3)o2)cc1OC (configuration not stated)       <=0.1

# input for lookup
So for Cc1c(C)c2c(c(C)c1O)CCC(C)(CNC(=O)/C=C/c1ccc(O)c(O)c1)O2 (configuration not stated) , the logged Ratio EC50 turned out to be 0.6

* * *

# System: HT-22
# Protocol Text: Neuroprotective activity in mouse HT22 cells assessed as inhibition of glutamate-induced cell oxytosis at 10 uM after 24 hrs by MTT assay relative to control
# Format: functional
Measured Property: Efficacy

>>> print(df.to_string())
                                   molecule  data_value
0  COc1ccc(/C=C/C(=O)N2CCN(C(=O)C3(C)CCc4c(C)c(O)c(C)c(C)c4O3)CC2)cc1OC (configuration not stated)        100%

Reported HT-22 Efficacy for item COc1ccc(Cc2nnc(C3(C)CCc4c(C)c(O)c(C)c(C)c4O3)o2)cc1OC (configuration not stated) was 80%

Reported HT-22 Efficacy for item Cc1c(C)c2c(c(C)c1O)CCC(C)(CNC(=O)/C=C/c1ccc(O)c(O)c1)O2 (configuration not stated) was 94%

* * *

# System: HT-22
# Protocol Text: Neuroprotective activity in mouse HT22 cells assessed as inhibition of glutamate-induced cell oxytosis at 10 uM after 24 hrs by MTT assay relative to control
# Type: functional
Recorded Efficacy, one value per entry.

>>> print(df.to_string())
                                   compound  data_value
0  Cc1c(C)c2c(c(CC(=O)/C=C/c3ccc(O)c(O)c3)c1O)CCC(C)(C)O2        100%
1  COc1ccc(-c2noc(C3(C)CCc4c(C)c(O)c(C)c(C)c4O3)n2)cc1OC (centres undefined)        100%

# input for lookup
So for COc1ccc(Cc2noc(C3(C)CCc4c(C)c(O)c(C)c(C)c4O3)n2)cc1OC (centres undefined) , the logged Efficacy turned out to be 75%
